Data credit: PubChem BioAssay (NCI)

tested on: SK-MEL-2 melanoma; assay: NCI tumour cell line growth inhibition, 48 h
Assignment: determine reported TGI for the given compounds.

Input: Please report TGI for the following compound: "O=C1/C(=C/c2cccc([N+](=O)[O-])c2)N=C(c2ccccc2)N1c1nc2ccc(Sc3ccccc3)cc2[nH]1"
Output: > 100 µM

Input: Please report TGI for the following compound: "COC(=O)[C@@]12CSC[C@]1(C(=O)OC)N[C@@H](c1ccccc1O)C2"
Output: > 100 µM

Input: Please report TGI for the following compound: COc1cc(/C=C2\C(=O)N(c3cccc(NC(C)=O)c3)C(c3ccccc3)S2(=O)=O)cc(OC)c1OC (centres undefined)
Output: > 100 µM

Input: Please report TGI for the following compound: "O=c1c(NCc2ccccc2)c(C2(c3ccccc3F)SCCCS2)c1=O"
Output: > 100 µM

Input: Please report TGI for the following compound: CN1C/C(=C\c2cccs2)C2=NN(c3ccccc3)C(c3cccs3)C2C1 (centres undefined)
Output: > 100 µM

Input: Please report TGI for the following compound: "CS(=O)(=O)OCCN(CCOS(C)(=O)=O)c1ccc(C=Nc2ccc(-c3csc(Cc4ccccc4)n3)cc2)c(Cl)c1"
Output: > 67.9 µM

Input: Please report TGI for the following compound: CC1OC(NCCNCCNC2OC(C)C(O)C(O)C2O)C(O)C(O)C1O (centres undefined)
Output: > 100 µM

Input: Please report TGI for the following compound: "CCCCn1c(=O)[nH]c2c(N)ncnc21"
Output: > 100 µM

Input: Please report TGI for the following compound: "NCCCn1c(Cl)nc2ccccc21"
Output: > 100 µM

Input: Please report TGI for the following compound: "COC(=O)CNC(=O)C(=O)c1c(O)c(O)c(C(C)C)c2cc(C)c(-c3c(C)cc4c(C(C)C)c(O)c(O)c(C(=O)C(=O)NCC(=O)OC)c4c3O)c(O)c12"
Output: 2.13 µM

Input: Please report TGI for the following compound: "Nc1[nH]nc(Nc2ccccc2)c1-c1nc2ccccc2s1"
Output: 8.9 µM

Input: Please report TGI for the following compound: "Cc1cccc2c(=O)c3cccc([C@H](C)C(=O)O)c3oc12"
Output: > 100 µM

Input: Please report TGI for the following compound: "ClCCCN1CCN(CCCl)CC1"
Output: 760 µM

Input: Please report TGI for the following compound: "Nc1c(C(=O)c2cccc(-c3cccnc3)c2)cnn1-c1ccc(F)cc1"
Output: > 25 µM

Input: Please report TGI for the following compound: CC1(Cl)C(=O)NC(=O)N([C@H]2C[C@H](O)[C@@H](CO)O2)C1N=[N+]=[N-] (some centres undefined)
Output: > 100 µM

Input: Please report TGI for the following compound: N[C@H]1CCC[C@@H](O)C1O (some centres undefined)
Output: > 100 µM

Input: Please report TGI for the following compound: C=CC[P@]1(=O)O[C@H](c2ccccc2)C(C)N1C(C)C (some centres undefined)
Output: > 100 µM

Input: Please report TGI for the following compound: "O=c1[nH]c2nc3ccccc3c(=O)n2nc1Cc1ccccc1"
Output: > 100 µM

Input: Please report TGI for the following compound: "Cn1c(=O)nc2n(-c3ccc(Br)cc3)c3ccccc3nc-2c1=O"
Output: 28.5 µM

Input: Please report TGI for the following compound: "COc1cc(/C=C/C(=O)c2c(C)n([O-])c3ccccc3[n+]2=O)cc(OC)c1OC"
Output: 17.2 µM

Input: Please report TGI for the following compound: O=[N+]([O-])c1ccc2c(c1)nc1n2C(c2c(F)cccc2F)SC1 (centres undefined)
Output: > 100 µM

Input: Please report TGI for the following compound: "O=C(Nc1ccccc1C(=O)NCc1ccccc1)/C(=C/c1ccccc1O)NC(=O)c1ccccc1"
Output: > 100 µM

Input: Please report TGI for the following compound: COc1ccc(C2CC(c3sc(Nc4ccc(C)cc4)nc3C)=NN2)cc1 (centres undefined)
Output: 30.7 µM

Input: Please report TGI for the following compound: "COc1ccc2nc3cc(Cl)ccc3c(Nc3ccccc3-c3ccccc3Nc3c4ccc(Cl)cc4nc4ccc(OC)cc34)c2c1"
Output: > 73.7 µM

Input: Please report TGI for the following compound: Cc1ccc([N+](=O)[O-])cc1S(=O)(=O)Nc1ccc(C2=NN(S(=O)(=O)c3cc([N+](=O)[O-])ccc3C)C(c3cccs3)C2)cc1 (centres undefined)
Output: 69.2 µM

Input: Please report TGI for the following compound: "COc1ccc(-n2nc(C)c3c(Nc4ccc(NC(=O)Nc5cccc(C(F)(F)F)c5)cc4)ncnc32)cc1"
Output: 4.01 µM

Input: Please report TGI for the following compound: "Cn1cc(-c2ccc3c4ccccc4n(C)c3c2)c2ccccc21"
Output: > 100 µM

Input: Please report TGI for the following compound: "COc1cc(C[C@@]2(C)[C@@H]3CCC[C@H](CO)[C@@]3(C)CC[C@@H]2C)c(Cl)c(OC)c1"
Output: 33.5 µM

Input: Please report TGI for the following compound: "Cc1cccc(NC(=O)c2c(N)[n+]([O-])c3ccccc3[n+]2[O-])c1"
Output: 23.3 µM

Input: Please report TGI for the following compound: "Nc1cc(OCC2CCCCC2)nc(N)n1"
Output: > 100 µM

Input: Please report TGI for the following compound: COC1CCCc2c(OC(C)=O)ccc(OC(C)=O)c21 (centres undefined)
Output: > 100 µM

Input: Please report TGI for the following compound: "COc1ccc(C2=C(c3ccc(OC)cc3)C(=O)OC2)cc1"
Output: > 48.6 µM

Input: Please report TGI for the following compound: "COc1cc(/C=C/c2ccc(OC)c(OC)c2)oc(=O)c1"
Output: > 250 µM

Input: Please report TGI for the following compound: CC(C#N)(NO)C(C)(C#N)NO (centres undefined)
Output: > 100 µM
